- REPORTED_CONDITIONS: 1 μM, 30 minutes, 37° C., NADPH
Returns one of rule met or rule not met; rule met when MS(Microsomal Stability) (%) mouse is >= 50%.

[[record]]
molecule = "CCN1CCN(c2ccc(/C(=C(/CCCO)c3ccccc3)c3ccc(C)cc3)cc2)CC1 [Compound 18j]"
assigned_category = "rule met"

[[record]]
molecule = "CC(C)N1CCN(c2ccc(/C(=C(/CCCO)c3ccccc3)c3cccc(O)c3)cc2)CC1 [Compound 18k]"
assigned_category = "rule not met"

[[record]]
molecule = "CC(C)N1CCN(c2ccc(/C(=C(/CCCO)c3ccccc3)c3ccc(NS(C)(=O)=O)cc3)cc2)CC1 [Compound 27a]"
assigned_category = "rule not met"

[[record]]
molecule = "CC(=O)Nc1ccc(/C(=C(\\CCCO)c2ccccc2)c2ccc(C3CCN(C4CC4)CC3)cc2)cc1 [Compound 27c]"
assigned_category = "rule not met"

[[record]]
molecule = "CC(C)N1CCN(c2ccc(/C(=C(/CCCO)c3ccccc3)c3ccc([N+](=O)[O-])cc3)cc2)CC1 [Compound 18g]"
assigned_category = "rule met"

[[record]]
molecule = "OCCC/C(=C(\\c1ccc(O)cc1)c1ccc(N2CCNCC2)cc1)c1ccccc1 [Compound 20j]"
assigned_category = "rule not met"

[[record]]
molecule = "Cc1ccc(/C(=C(\\CCCO)c2ccccc2)c2ccc(N3CCN(C(C)C)CC3)cc2)cc1 [Compound 18b]"
assigned_category = "rule not met"

[[record]]
molecule = "Cc1ccc(/C(=C(\\CCCO)c2ccccc2)c2ccc(C3CCN(C)CC3)cc2)cc1 [Compound 22f]"
assigned_category = "rule met"

[[record]]
molecule = "Nc1ccc(/C(=C(\\CCCO)c2ccccc2)c2ccc(C3CCN(C4CC4)CC3)cc2)cc1 [Compound 26d]"
assigned_category = "rule not met"


Hey, just so you know, these numbers are from patent US10934303B2.
